Reference source: patent US8362000B2

Reported pIC50 by item:
# target.of.assay: purified wild type MGL (wt-MGLL 6H-11-313) (Homo sapiens)
# Sequence (Q99685 1-303): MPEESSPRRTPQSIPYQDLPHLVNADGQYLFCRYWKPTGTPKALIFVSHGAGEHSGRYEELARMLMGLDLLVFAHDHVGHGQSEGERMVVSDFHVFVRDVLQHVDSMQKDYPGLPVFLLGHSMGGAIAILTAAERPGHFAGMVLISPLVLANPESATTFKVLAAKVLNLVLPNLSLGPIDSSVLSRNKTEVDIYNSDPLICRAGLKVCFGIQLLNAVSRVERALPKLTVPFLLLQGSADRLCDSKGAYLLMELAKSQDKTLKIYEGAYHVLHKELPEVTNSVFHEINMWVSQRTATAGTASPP
pIC50: −log10 of the molar value.
readout: pIC50

{"columns": ["structure.as.smiles", "bound.sign", "observed.measurement"],
 "data": [
  ["Cc1nc2cc(C(=O)N3CCN(C4CN(C(=O)c5nccs5)C4)CC3)ccc2n1C1CCCCC1", "=", 5.84],
  ["O=C(c1ccc(-c2ccccc2)s1)N1CC(N2CCN(C(=O)c3nccs3)CC2)C1", "=", 7.74],
  ["Cc1noc(C)c1-c1ccc2cc(C(=O)N3CC(N4CCN(C(=O)c5nccs5)CC4)C3)[nH]c2c1", "=", 6.70],
  ["O=C(c1nn(-c2ccc(Cl)cc2Cl)c2c1CSC/C2=C\\c1ccc(F)cc1)N1CC(N2CCN(C(=O)C(F)(F)F)CC2)C1", "=", 7.17],
  ["O=C(c1ccc(Oc2cccnc2)cc1)N1CC(N2CCN(C(=O)c3nccs3)CC2)C1", "=", 6.59],
  ["O=C(c1cscn1)N1CCN(C2CN(C(=O)c3cc4cc(Cl)ccc4o3)C2)CC1", "<", 4.78],
  ["Cc1cn(-c2ccccc2)c2ccc(C(=O)N3CC(N4CCN(C(=O)c5nccs5)CC4)C3)cc12", "=", 8.30],
  ["O=C(c1ccc(Sc2cccc(C(F)(F)F)c2)cc1)N1CC(N2CCN(C(=O)C(F)(F)F)CC2)C1", "=", 5.85]
]}

###

Reported Kd by item:
# target.of.assay: mutant MGL (Homo sapiens, UniProt Q99685, L169S/L176S)
# assay.procedure: MGL ThermoFluor assay - mutant
# Type: binding
# assay.context: ThermoFluor concentration-response, read-out: MGL mutant ThermoFluor Kd

{"columns": ["structure.as.smiles", "target.of.assay", "Kd / nM"],
 "data": [
  ["Cc1cc(C(=O)N2CC(N3CCN(C(=O)c4cscn4)CC3)C2)ccc1-c1ccccc1", "mutant MGL (Homo sapiens, UniProt Q99685, L169S/L176S)", 29],
  ["Cc1c(-c2ccccc2)oc2c(C(=O)N3CC(N4CCN(C(=O)c5nccs5)CC4)C3)cccc2c1=O", "mutant MGL (Homo sapiens, UniProt Q99685, L169S/L176S)", 66.7],
  ["O=C(c1cc2ccc(C(F)(F)F)nc2[nH]1)N1CC(N2CCN(C(=O)c3nccs3)CC2)C1", "mutant MGL (Homo sapiens, UniProt Q99685, L169S/L176S)", 661],
  ["Cn1cc(-c2ccccc2)c2ccc(C(=O)N3CC(N4CCN(C(=O)c5nccs5)CC4)C3)cc21", "mutant MGL (Homo sapiens, UniProt Q99685, L169S/L176S)", 2],
  ["O=C(c1ccc(Oc2cccc(Cl)c2)c(F)c1)N1CC(N2CCN(C(=O)c3nccs3)CC2)C1", "mutant MGL (Homo sapiens, UniProt Q99685, L169S/L176S)", 10],
  ["O=C(c1ccccc1)N1CCN(C2CN(C(=O)c3cnn(-c4ccccc4)c3C(F)(F)F)C2)CC1", "mutant MGL (Homo sapiens, UniProt Q99685, L169S/L176S)", 5020],
  ["O=C(c1ccccc1)N1CCN(C2CN(C(=O)c3ccc(Oc4ccccn4)c(Cl)c3)C2)CC1", "mutant MGL (Homo sapiens, UniProt Q99685, L169S/L176S)", 2500],
  ["O=C(c1cscn1)N1CC(N2CCN(C(=O)c3cc4cc(C(F)(F)F)ccc4[nH]3)CC2)C1", "mutant MGL (Homo sapiens, UniProt Q99685, L169S/L176S)", 185],
  ["O=C(c1cc2ccc(C(F)(F)F)cc2[nH]1)N1CC(N2CCN(C(=O)c3nccs3)CC2)C1", "mutant MGL (Homo sapiens, UniProt Q99685, L169S/L176S)", 383],
  ["O=C(c1ccc(-c2ccc(C(F)(F)F)s2)cc1)N1CC(N2CCN(C(=O)c3ccc[nH]3)CC2)C1", "mutant MGL (Homo sapiens, UniProt Q99685, L169S/L176S)", 18],
  ["O=C(c1ccc(Cl)nc1)c1c[nH]c2cc(C(=O)N3CC(N4CCN(C(=O)c5nccs5)CC4)C3)ccc12", "mutant MGL (Homo sapiens, UniProt Q99685, L169S/L176S)", 178],
  ["O=C(c1ccc(SCc2cccc(Cl)c2)cc1)N1CC(N2CCN(C(=O)c3nccs3)CC2)C1", "mutant MGL (Homo sapiens, UniProt Q99685, L169S/L176S)", 10],
  ["O=C(c1ccc(Oc2ccc(Cl)cc2)cc1)N1CC(N2CCN(C(=O)c3nccs3)CC2)C1", "mutant MGL (Homo sapiens, UniProt Q99685, L169S/L176S)", 5],
  ["Cc1c(C(=O)N2CCN(C3CN(C(=O)c4nccs4)C3)CC2)sc2cc(C(F)(F)F)ccc12", "mutant MGL (Homo sapiens, UniProt Q99685, L169S/L176S)", 17],
  ["O=C(c1ccc2c(ccn2-c2ncccn2)c1)N1CC(N2CCN(C(=O)c3nccs3)CC2)C1", "mutant MGL (Homo sapiens, UniProt Q99685, L169S/L176S)", 15],
  ["Cc1nn(-c2ccc(Cl)c(Cl)c2)c(C)c1C(=O)N1CC(N2CCN(C(=O)c3nccs3)CC2)C1", "mutant MGL (Homo sapiens, UniProt Q99685, L169S/L176S)", 42]
]}

###

# target.of.assay: purified wild type MGL (wt-MGLL 6H-11-313) (Homo sapiens)
# Sequence (Q99685 1-303): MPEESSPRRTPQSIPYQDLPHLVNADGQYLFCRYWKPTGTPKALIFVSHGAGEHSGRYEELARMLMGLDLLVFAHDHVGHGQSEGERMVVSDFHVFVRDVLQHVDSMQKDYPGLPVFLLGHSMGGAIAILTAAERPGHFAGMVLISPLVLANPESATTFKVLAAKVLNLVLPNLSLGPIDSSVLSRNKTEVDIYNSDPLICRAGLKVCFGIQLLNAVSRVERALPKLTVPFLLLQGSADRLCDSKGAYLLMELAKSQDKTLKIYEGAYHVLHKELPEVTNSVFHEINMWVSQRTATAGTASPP

{"columns": ["structure.as.smiles", "IC50 (nM)"],
 "data": [
  ["Cc1nc2cc(C(=O)N3CC(N4CCN(C(=O)c5nccs5)CC4)C3)ccc2s1", 1090],
  ["O=C(c1cscn1)N1CCN(C2CN(C(=O)c3cc(-c4ccccc4)ccc3Cl)C2)CC1", 2510],
  ["CCCCC/C=C\\C/C=C\\CCCCCCCC(=O)N1CC(N2CCN(C(=O)c3nccs3)CC2)C1", 189],
  ["Cc1cc(-c2cccc(C(F)(F)F)c2)ccc1C(=O)N1CCN(C2CN(C(=O)c3nccs3)C2)CC1", 862]
]}

###

# target.of.assay: mutant MGL (Homo sapiens, UniProt Q99685, L169S/L176S)
# assay.procedure: MGL ThermoFluor assay - mutant
# Type: binding
# assay.context: ThermoFluor concentration-response, read-out: MGL mutant ThermoFluor Kd
Labelling: Kd reported below 600 nM becomes Y; at or above becomes N.

{"columns": ["compound", "target.of.assay", "answer.label"],
 "data": [
  ["CCCc1ccc(C(=O)N2CC(N3CCN(C(=O)c4nccs4)CC3)C2)cc1", "mutant MGL (Homo sapiens, UniProt Q99685, L169S/L176S)", "Y"],
  ["CC(C)n1c(C(F)(F)F)nc2cc(C(=O)N3CC(N4CCN(C(=O)c5nccs5)CC4)C3)ccc21", "mutant MGL (Homo sapiens, UniProt Q99685, L169S/L176S)", "Y"],
  ["O=C(c1ccc2c(c1)[nH]c(=O)n2-c1ccccc1)N1CC(N2CCN(C(=O)c3cscn3)CC2)C1", "mutant MGL (Homo sapiens, UniProt Q99685, L169S/L176S)", "Y"],
  ["O=C(c1ccccc1)N1CCN(C2CN(C(=O)c3ccc(N4CCOCC4)nc3)C2)CC1", "mutant MGL (Homo sapiens, UniProt Q99685, L169S/L176S)", "N"],
  ["O=C(c1ccc2c(ccn2-c2cccc(C(F)(F)F)c2)c1)N1CC(N2CCN(C(=O)c3nccs3)CC2)C1", "mutant MGL (Homo sapiens, UniProt Q99685, L169S/L176S)", "Y"],
  ["O=C(c1cnon1)N1CC(N2CCN(C(=O)c3cc4cc(C(F)(F)F)ccc4s3)CC2)C1", "mutant MGL (Homo sapiens, UniProt Q99685, L169S/L176S)", "N"],
  ["Cn1cc(-c2cccc(C(F)(F)F)c2)c2ccc(C(=O)N3CC(N4CCN(C(=O)c5ccccc5)CC4)C3)cc21", "mutant MGL (Homo sapiens, UniProt Q99685, L169S/L176S)", "Y"],
  ["O=C(c1ccc2c(c1)C(Cc1cccc(C(F)(F)F)c1)(Cc1cccc(C(F)(F)F)c1)C(=O)N2)N1CC(N2CCN(C(=O)c3nccs3)CC2)C1", "mutant MGL (Homo sapiens, UniProt Q99685, L169S/L176S)", "Y"],
  ["O=C(c1ccc2c(ccn2-c2ccc(F)cc2F)c1)N1CC(N2CCN(C(=O)c3cscn3)CC2)C1", "mutant MGL (Homo sapiens, UniProt Q99685, L169S/L176S)", "Y"],
  ["O=C(c1ccc2c(ccn2-c2ccc(C(F)(F)F)cc2)c1)N1CC(N2CCN(C(=O)c3ccns3)CC2)C1", "mutant MGL (Homo sapiens, UniProt Q99685, L169S/L176S)", "Y"],
  ["O=C(c1cscn1)N1CC(N2CCN(C(=O)c3cc4cc(C(F)(F)F)ccc4s3)C(c3ccccc3)C2)C1 (stereo not shown)", "mutant MGL (Homo sapiens, UniProt Q99685, L169S/L176S)", "Y"],
  ["O=C(c1ccc(-c2ccccc2)cc1)N1CC(N2CCN(C(=O)c3ccco3)CC2)C1", "mutant MGL (Homo sapiens, UniProt Q99685, L169S/L176S)", "Y"],
  ["O=C(c1cnn(-c2ccccc2)n1)N1CC(N2CCN(C(=O)c3nccs3)CC2)C1", "mutant MGL (Homo sapiens, UniProt Q99685, L169S/L176S)", "N"],
  ["O=C(c1nccs1)N1CCN(C2CN(C(=O)c3cc(-c4ccccc4)ccc3Cl)C2)CC1", "mutant MGL (Homo sapiens, UniProt Q99685, L169S/L176S)", "Y"],
  ["O=C(c1ccc(Oc2ccccn2)c(F)c1)N1CC(N2CCN(C(=O)c3nccs3)CC2)C1", "mutant MGL (Homo sapiens, UniProt Q99685, L169S/L176S)", "Y"],
  ["O=C(c1ccccc1)N1CCN(C2CN(C(=O)c3ccc(-c4ccccc4)cc3)C2)CC1", "mutant MGL (Homo sapiens, UniProt Q99685, L169S/L176S)", "Y"],
  ["Cc1c(C(=O)N2CC(N3CCN(C(=O)c4nccs4)CC3)C2)c2ccccc2n1C", "mutant MGL (Homo sapiens, UniProt Q99685, L169S/L176S)", "Y"],
  ["O=C(c1cc(Br)cc(C(F)(F)F)c1)N1CC(N2CCN(C(=O)c3cscn3)CC2)C1", "mutant MGL (Homo sapiens, UniProt Q99685, L169S/L176S)", "N"],
  ["Cc1ccc(-c2ccc(C(=O)N3CC(N4CCN(C(=O)c5cscn5)CC4)C3)[nH]2)cc1", "mutant MGL (Homo sapiens, UniProt Q99685, L169S/L176S)", "N"],
  ["O=C(c1cc(F)cc(Br)c1)N1CC(N2CCN(C(=O)c3cscn3)CC2)C1", "mutant MGL (Homo sapiens, UniProt Q99685, L169S/L176S)", "N"],
  ["O=C(c1cc2ccc(C(F)(F)F)nc2o1)N1CCN(C2CN(C(=O)c3nccs3)C2)CC1", "mutant MGL (Homo sapiens, UniProt Q99685, L169S/L176S)", "N"],
  ["O=C(c1ccccc1)N1CCN(C2CN(C(=O)c3ccc(N4CCCCC4)cc3)C2)CC1", "mutant MGL (Homo sapiens, UniProt Q99685, L169S/L176S)", "Y"],
  ["O=C(c1ccc2c(ccn2-c2ccc(C(F)(F)F)cc2)c1)N1CCN(C2CN(C(=O)c3nccs3)C2)CC1", "mutant MGL (Homo sapiens, UniProt Q99685, L169S/L176S)", "Y"],
  ["CC1CN(C2CN(C(=O)c3cccc(Oc4ccccc4)c3)C2)CCN1C(=O)c1nccs1 (stereo not shown)", "mutant MGL (Homo sapiens, UniProt Q99685, L169S/L176S)", "N"],
  ["O=C(c1ccc2c(c1)[nH]c(=O)n2-c1ccc(F)cc1)N1CC(N2CCN(C(=O)c3nccs3)CC2)C1", "mutant MGL (Homo sapiens, UniProt Q99685, L169S/L176S)", "Y"],
  ["O=C(c1ccccc1)N1CCN(C2CN(C(=O)c3ccc(O[C@H]4CCN(C(=O)N5CCCC5)C4)c(I)c3)C2)CC1", "mutant MGL (Homo sapiens, UniProt Q99685, L169S/L176S)", "Y"],
  ["O=C(c1ccc2[nH]c(C3CCCCC3)nc2c1)N1CCN(C2CN(C(=O)c3nccs3)C2)CC1", "mutant MGL (Homo sapiens, UniProt Q99685, L169S/L176S)", "Y"],
  ["O=C(c1ccc2nc(C(F)(F)F)cc(Cl)c2c1)N1CCN(C2CN(C(=O)c3nccs3)C2)CC1", "mutant MGL (Homo sapiens, UniProt Q99685, L169S/L176S)", "N"],
  ["O=C(c1cscn1)N1CCN(C2CN(C(=O)C3CCC(C(F)(F)F)CC3)C2)CC1 (stereo not shown)", "mutant MGL (Homo sapiens, UniProt Q99685, L169S/L176S)", "N"],
  ["O=C(c1ccc2c(c1)[nH]c(=O)n2-c1ccc(C(F)(F)F)cc1)N1CC(N2CCN(C(=O)c3cscn3)CC2)C1", "mutant MGL (Homo sapiens, UniProt Q99685, L169S/L176S)", "Y"]
]}
